Biological target: human BCL6 BTB domain (Homo sapiens, UniProt P41182)
Test: BCL6 TR-FRET assay
Format: binding
Conditions: Table S1
readout: BCL6 TR-FRET pIC50 mean

[
  {
    "molecule": "Cc1nccc(Nc2ccc3c(c2)c2c(c(=O)n3C)OCC(F)(F)[C@H](C3CC3)N2)c1Cl",
    "target": "human BCL6 BTB domain (Homo sapiens, UniProt P41182)",
    "reported measurement": 7.7332
  },
  {
    "molecule": "Cn1c(=O)c2c(c3cc(Nc4nc(N5CC(C#N)C5)ncc4Cl)ccc31)N[C@@H](C1CC1)C(F)(F)CO2",
    "target": "human BCL6 BTB domain (Homo sapiens, UniProt P41182)",
    "reported measurement": 8.3025
  },
  {
    "molecule": "Cn1c(=O)c2c(c3cc(Nc4nc(N5CC6CCC(C5)O6)ncc4Cl)ccc31)N[C@@H](C1CC1)C(F)(F)CO2",
    "target": "human BCL6 BTB domain (Homo sapiens, UniProt P41182)",
    "reported measurement": 8.527
  }
]
